Values compiled from patent US20130071328A1.

Test system: panel of cancer cells
assay_details: MTT cytotoxicity of compound 4 across tested cell lines (FIG. 2B)
Format: cell-based
condition_info: Homo sapiens, MTT assays
Procedure: Cytotoxicity was assessed by MTT assay as described previously. 43 In brief, cells were seeded in 96-well microtiter plates and allowed to attach overnight. Cells were subsequently treated with continuous exposure to corresponding drugs for 72 h. […] After removal of the supernatant, DMSO was added, and the absorbance was read at 570 nm. […] The IC50 was then determined for each drug from a plot of log(drug concentration) versus percentage of cells killed.
pIC50: −log10 of the molar value.
observation_type: pIC50

*Q* Suppose we examine the compound C#CC(=O)N(c1ccc(-n2cnnn2)c(C)c1)C(C(=O)NC1CCCC1)c1ccccc1F (stereo not shown) ; what pIC50 value has been reported?
*A* 5.60 to 6.00

###

System: HT29 colon cancer cell line
assay_details: MTT cytotoxicity assay, HT29
Type: cell-based
condition_info: Homo sapiens, HT-29, 72 h exposure
observation_type: IC50 (µM)
Please give a number only; it is taken to be in µM.

# annotated cases, reported IC50 shown
C#CC(=O)N(c1cccc(C(F)(F)F)c1)C(C(=O)NC1CCCC1)c1cccc(OC)c1 (stereo not shown) [Compound 2]: 7.2
C#CC(=O)N(c1ccc(OC)cc1OC)C(C(=O)NC1CCCC1)c1cccs1 (stereo not shown) [Compound 5]: 2.3
C#CC(=O)N(c1cc(OC)cc(OC)c1)C(C(=O)NC1CCCC1)c1ccc(OC)cc1 (stereo not shown) [Compound 11]: 2.1
C#CC(=O)N(c1cccc(C(F)(F)F)c1)C(C(=O)NCc1ccccc1)c1cccs1 (stereo not shown) [Compound 16]: 7.3

*Q* Suppose we examine the compound C#CC(=O)N(c1ccc2ccccc2c1)C(C(=O)NC1CCCC1)c1ccccc1 (stereo not shown) [Compound 14] ; what IC50 value has been reported?
*A* 4.9

*Q* Suppose we examine the compound C#CC(=O)N(c1ccc(-n2cnnn2)c(C)c1)C(C(=O)NC1CCCC1)c1ccccc1 (stereo not shown) [Compound 9] ; what IC50 value has been reported?
*A* 1.5

*Q* Suppose we examine the compound C#CC(=O)N(c1cccc(C(F)(F)F)c1)C(C(=O)NC1CCCC1)c1ccc(F)cc1 (stereo not shown) [Compound 12] ; what IC50 value has been reported?
*A* 4.8

*Q* Suppose we examine the compound C#CC(=O)N(c1cccc(OC)c1)C(C(=O)NC1CCCC1)c1cccs1 (stereo not shown) [Compound 6] ; what IC50 value has been reported?
*A* 2.3

*Q* Suppose we examine the compound C#CC(=O)N(c1cc(OC)ccc1OC)C(C(=O)NC1CCCC1)c1cccs1 (stereo not shown) [Compound 7] ; what IC50 value has been reported?
*A* 1.6

*Q* Suppose we examine the compound C#CC(=O)N(c1ccccc1F)C(C(=O)NC1CCCCC1)c1ccccc1F (stereo not shown) [Compound 19] ; what IC50 value has been reported?
*A* 7.7

*Q* Suppose we examine the compound C#CC(=O)N(c1cccc(C(F)(F)F)c1)C(C(=O)NC1CCCCC1)c1cccs1 (stereo not shown) [Compound 13] ; what IC50 value has been reported?
*A* 6

*Q* Suppose we examine the compound C#CC(=O)N(c1ccc(-n2cnnn2)c(C)c1)C(C(=O)NC1CCCC1)c1ccccc1F (stereo not shown) [Compound 4] ; what IC50 value has been reported?
*A* 1.8

*Q* Suppose we examine the compound C#CC(=O)N(c1cc(OC)cc(OC)c1)C(C(=O)NC1CCCCC1)c1ccc(OC)cc1 (stereo not shown) [Compound 1] ; what IC50 value has been reported?
*A* 6.3

*Q* Suppose we examine the compound C#CC(=O)N(Cc1ccccc1Cl)C(C(=O)NC1CCCC1)c1ccccc1 (stereo not shown) [Compound 17] ; what IC50 value has been reported?
*A* 5.4

*Q* Suppose we examine the compound C#CC(=O)N(c1ccc(OC)c(OC)c1)C(C(=O)NC1CCCC1)c1cccs1 (stereo not shown) [Compound 3] ; what IC50 value has been reported?
*A* 5.5

*Q* Suppose we examine the compound C#CC(=O)N(c1ccc2c(c1)OCCO2)C(C(=O)NC1CCCC1)c1ccccc1 (stereo not shown) [Compound 8] ; what IC50 value has been reported?
*A* 3.2

###

assay_details: Pharmacokinetics study after i.p. administration
Format: in vivo, mice
condition_info: mouse, plasma, ip; mice, 24 mg/kg i.p., 1 hour; read-out: concentration in the blood one hour following i.p. administration
observation_type: concentration at 1 h (ng/mL)
Please give a number only; it is taken to be in ng/mL.

C#CC(=O)N(c1ccc(-n2cnnn2)c(C)c1)C(C(=O)NC1CCCC1)c1ccccc1 (centres unmarked): 6.2

Here's the next entry for you.
*Q* Suppose we examine the compound C#CC(=O)N(c1ccc(-n2cnnn2)c(C)c1)C(C(=O)NC1CCCC1)c1ccccc1F (centres unmarked) ; what concentration at 1 h value has been reported?
*A* 344

###

assay_details: Pharmacokinetics study after i.p. administration
Type: in vivo, mice
condition_info: mouse, in vivo, ip, 24 mg/kg
observation_type: half-life

C#CC(=O)N(c1ccc(-n2cnnn2)c(C)c1)C(C(=O)NC1CCCC1)c1ccccc1F (centres unmarked): ~3.5 h

Here's the next entry for you.
*Q* Suppose we examine the molecule C#CC(=O)N(c1ccc(-n2cnnn2)c(C)c1)C(C(=O)NC1CCCC1)c1ccccc1 (centres unmarked) ; what half-life value has been reported?
*A* ~9.3 h

###

IC50 values, listed per item
Tested on: OVCAR3 ovarian cancer cell line
assay_details: In vitro cytotoxicity, OVCAR3
Format: cell-based
condition_info: Homo sapiens, OVCAR-3; Table 4, ovarian cancer panel
Please give a number only; it is taken to be in nM.

C#CC(=O)NCCC(=O)N(c1ccc(OC)cc1OC)C(C(=O)NC1CCCC1)c1cccs1 (stereo not shown): 2300
C#CC(=O)N(CC(=O)NC1CCCC1)c1ccc(OC)cc1OC: 230
C#CC(=O)N(c1cc(OC)c(OC)c(OC)c1)C(C(=O)NC1CCCC1)c1cccs1 (stereo not shown): 420

*Q* What reported IC50 corresponds to C#CC(=O)N(c1cccc(O)c1)C(C(=O)NC1CCCC1)c1cccs1 (stereo not shown) on OVCAR3 ovarian cancer cell line?
*A* 1500

###

pIC50 values, listed per item
Tested on: doxorubicin-resistant NCI/ADR-RES ovarian cancer cell line
assay_details: Cytotoxicity assay, NCI/ADR-RES
Assay type: cell-based
condition_info: Homo sapiens, MTT, 72 h exposure (Table 2)
Scale for pIC50: -log10 of concentration given in mol/L; no unit attached.

# annotated cases, reported pIC50 shown
C#CC(=O)N(c1cccc(C(F)(F)F)c1)C(C(=O)NC1CCCCC1)c1cccs1 (stereo not shown) [Compound 13]: 6.40
C#CC(=O)N(c1ccc(OC)cc1OC)C(C(=O)NC1CCCC1)c1cccs1 (stereo not shown) [Compound 5]: 6.40
C#CC(=O)N(Cc1ccco1)C(C(=O)NC1CCCC1)c1ccccc1F (stereo not shown) [Compound 10]: 5.92

*Q* Suppose we examine the compound C#CC(=O)N(c1ccc2ccccc2c1)C(C(=O)NC1CCCC1)c1ccccc1 (stereo not shown) [Compound 14] ; what pIC50 value has been reported?
*A* 6.52

*Q* Suppose we examine the compound C#CC(=O)N(c1cc(OC)cc(OC)c1)C(C(=O)NC1CCCCC1)c1ccc(OC)cc1 (stereo not shown) [Compound 1] ; what pIC50 value has been reported?
*A* 6.52

*Q* Suppose we examine the compound C#CC(=O)N(c1cccc(OC)c1)C(C(=O)NC1CCCC1)c1cccs1 (stereo not shown) [Compound 6] ; what pIC50 value has been reported?
*A* 6.52

*Q* Suppose we examine the compound C#CC(=O)N(c1cccc(C(F)(F)F)c1)C(C(=O)NCc1ccccc1)c1cccs1 (stereo not shown) [Compound 16] ; what pIC50 value has been reported?
*A* 6.15

*Q* Suppose we examine the compound C#CC(=O)N(c1cccc(C(F)(F)F)c1)C(C(=O)NC1CCCC1)c1ccc(F)cc1 (stereo not shown) [Compound 12] ; what pIC50 value has been reported?
*A* 6.40

*Q* Suppose we examine the compound C#CC(=O)N(Cc1ccccc1Cl)C(C(=O)NC1CCCC1)c1ccccc1 (stereo not shown) [Compound 17] ; what pIC50 value has been reported?
*A* 5.66

*Q* Suppose we examine the compound C#CC(=O)N(c1ccccc1F)C(C(=O)NC1CCCCC1)c1ccccc1F (stereo not shown) [Compound 19] ; what pIC50 value has been reported?
*A* 6.40

###

System: OVCAR3 ovarian cancer cell line
assay_details: In vitro cytotoxicity, OVCAR3
Assay type: cell-based
condition_info: Homo sapiens, OVCAR-3; Table 4, ovarian cancer panel
Experimental: Cytotoxicity was assessed by MTT assay as described previously. 43 In brief, cells were seeded in 96-well microtiter plates and allowed to attach overnight. Cells were subsequently treated with continuous exposure to corresponding drugs for 72 h. […] After removal of the supernatant, DMSO was added, and the absorbance was read at 570 nm. […] The IC50 was then determined for each drug from a plot of log(drug concentration) versus percentage of cells killed.
observation_type: pIC50
Scale for pIC50: -log10 of concentration given in mol/L; no unit attached.

# annotated cases, reported pIC50 shown
C#CC(=O)NCC(=O)N(c1ccc(OC)cc1OC)C(C(=O)NC1CCCC1)c1cccs1 (stereo not shown): 5.64
C#CC(=O)N(c1ccc(-n2cnnn2)c(C)c1)C(C(=O)NC1CCCC1)c1c(F)c(F)c(F)c(F)c1F (stereo not shown): 6.22
C#CC(=O)N(C)C(C(=O)NC1CCCC1)c1cccs1 (stereo not shown): 6.28

Here's the next entry for you.
*Q* Suppose we examine the compound C#CC(=O)N(c1ccc(OC)cc1OC)C(C(=O)NCC(=O)OCC)c1cccs1 (stereo not shown) ; what pIC50 value has been reported?
*A* 6.49
